# system.tested: SARS2 M^pro (Severe acute respiratory syndrome coronavirus 2, UniProt P0DTD1, P3395H)
# Type: biochemical, SARS-CoV-2
Where a SMILES comes first, the peptide text is derived from it.
measured.parameter: % inhibition (20 µM) biochemical (%)
Unit % implied. Number only.

1. Cc1ccc(Cn2cc(SCC(=O)NCc3ccco3)c3ccccc32)cc1    3.38
2. CCCN1C(=O)C(O)(CC(=O)c2cc(OC)ccc2OC)c2cc(Br)ccc21 (centres unmarked)    33
3. C=CCN1C(=O)C(O)(CC(=O)c2ccc(C)cc2)c2cc(Br)ccc21 (centres unmarked)    4.69

Q: Reported % inhibition (20 µM) biochemical, compound C=CCN1C(=O)C(O)(CC(=O)c2ccc(Cl)s2)c2cc(Br)ccc21 (centres unmarked) : ____
A: 7.53

Q: Reported % inhibition (20 µM) biochemical, compound CCOC(=O)c1c(NC(=O)CCl)sc2c1CC(C)(C)NC2(C)C : ____
A: 98

Q: Reported % inhibition (20 µM) biochemical, compound NC(=O)c1ccccc1NC(=O)/C=C/C(=O)O : ____
A: 6.4

Q: Reported % inhibition (20 µM) biochemical, compound CC1=CC(C)(C)N2C(=O)C(=O)c3cc(OC(=O)c4cccc(F)c4)cc1c32 : ____
A: 2.41

Q: Reported % inhibition (20 µM) biochemical, compound CSCCC(C=O)NC(=O)C(CC(C)C)NC(=O)C(CC(C)C)NC(C)=O (stereo not drawn) [MWAC-0001889] (Ac-Leu-Leu-Met-aldehyde; configuration not given here) : ____
A: 99

Measured values drawn from paper PMC11550483 for this set.
